Where do these numbers come from? They come from patent US7166726B2.

System: RARγ-VP-16 chimeric receptor
Assay: Retinoid inverse agonist assay: repression of basal luciferase activity of RARγ-VP-16 chimeric receptor in CV-1 cells
Assay type: cell-based
Details: CV-1 cells cotransfected with RARγ-VP-16, ER-RXRα chimeric receptor and ERE-tk-Luc reporter; read-out: IC50, inhibition of basal luciferase activity
property.label: IC50 (nM)

# compound, experimental.system, measured.value
data = [
    ("Cc1ccc(C2=CCC(C)(C)c3cc4cccc(-c5ccc(C(=O)O)cc5)c4cc32)cc1 [Compound 2]", "RARγ-VP-16 chimeric receptor", 1),
]

* * *

In this section we review reported Kd values for a set of compounds.
Biological target: RARβ (Homo sapiens)
Sequence (P10826 whole entry, species assumed): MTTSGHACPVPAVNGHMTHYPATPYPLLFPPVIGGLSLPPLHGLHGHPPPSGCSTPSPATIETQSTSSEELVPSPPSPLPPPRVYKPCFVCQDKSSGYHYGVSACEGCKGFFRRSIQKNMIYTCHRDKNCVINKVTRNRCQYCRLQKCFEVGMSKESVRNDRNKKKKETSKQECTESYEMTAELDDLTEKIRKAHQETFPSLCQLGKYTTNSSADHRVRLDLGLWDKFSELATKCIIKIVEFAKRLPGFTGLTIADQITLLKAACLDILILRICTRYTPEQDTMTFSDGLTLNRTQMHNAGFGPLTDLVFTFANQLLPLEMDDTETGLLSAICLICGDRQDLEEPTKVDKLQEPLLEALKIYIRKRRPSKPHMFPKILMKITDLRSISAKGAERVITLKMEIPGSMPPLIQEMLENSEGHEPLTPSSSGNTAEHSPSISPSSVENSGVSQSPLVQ
Experiment: Ligand binding assay, RARβ

# smiles.record, experimental.system, Kd
records = [
    ("Cc1ccc(C2=CCC(C)(C)c3cc4cccc(-c5ccc(C(=O)O)cc5)c4cc32)cc1", "RARβ (Homo sapiens)", "4 nM"),
    ("Cc1ccc(C2=CC(C)(C)Oc3cc4ccc(-c5ccc(C(=O)O)cc5)cc4cc32)s1", "RARβ (Homo sapiens)", "12 nM"),
]
